Consider the following variants; for each one, report its polymerase ribozyme fitness (log ratio).
B1: TPR 5TU (parent)
chain: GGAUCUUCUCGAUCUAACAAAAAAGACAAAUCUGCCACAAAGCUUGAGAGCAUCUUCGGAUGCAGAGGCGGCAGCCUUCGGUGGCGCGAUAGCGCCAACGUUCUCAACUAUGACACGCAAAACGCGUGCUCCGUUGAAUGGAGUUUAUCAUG

- Variants of: B1
- measurement.description: polymerase ribozyme fitness, log enrichment relative to wild type (log ratio); higher = more active; in vitro selection for triplet polymerase activity
Fewer inactive variants are shown than the library holds.

### Prompt Can you look up the measured polymerase ribozyme fitness (log ratio) of A3U G88A A110G for me?
### Response ≤ -4.2

### Prompt Can you look up the measured polymerase ribozyme fitness (log ratio) of U9A A22C A37U U45A U53A G84A A147U for me?
### Response ≤ -4.2

### Prompt Can you look up the measured polymerase ribozyme fitness (log ratio) of C69G C87A A91C G126A for me?
### Response ≤ -4.2

### Prompt Can you look up the measured polymerase ribozyme fitness (log ratio) of U45A G92A U127C G128A U130G for me?
### Response -4.06

### Prompt Can you look up the measured polymerase ribozyme fitness (log ratio) of A37G U55A A66G C75U C85A A122U for me?
### Response ≤ -4.2

### Prompt Can you look up the measured polymerase ribozyme fitness (log ratio) of A19U C51U G58C C85U A91U C114U C118U for me?
### Response ≤ -4.2

### Prompt Can you look up the measured polymerase ribozyme fitness (log ratio) of U44A A89U G92C C95U for me?
### Response ≤ -4.2

### Prompt Can you look up the measured polymerase ribozyme fitness (log ratio) of C36A A66C G81A A91C C93U for me?
### Response ≤ -4.2

### Prompt Can you look up the measured polymerase ribozyme fitness (log ratio) of A30C G59A for me?
### Response ≤ -4.2

### Prompt Can you look up the measured polymerase ribozyme fitness (log ratio) of A26C U56A A60U U82G for me?
### Response -2.45

### Prompt Can you look up the measured polymerase ribozyme fitness (log ratio) of A24U C32A for me?
### Response -3.85

### Prompt Can you look up the measured polymerase ribozyme fitness (log ratio) of G11C C36U U78C C85G A120C C123A G124A U151C for me?
### Response ≤ -4.2

### Prompt Can you look up the measured polymerase ribozyme fitness (log ratio) of A19G G50A G83C G86U C96U for me?
### Response ≤ -4.2

### Prompt Can you look up the measured polymerase ribozyme fitness (log ratio) of C93U A106C C129G G143A for me?
### Response -3.64

### Prompt Can you look up the measured polymerase ribozyme fitness (log ratio) of A66G U102A U135C for me?
### Response ≤ -4.2

### Prompt Can you look up the measured polymerase ribozyme fitness (log ratio) of G50A C96U G141U for me?
### Response -0.125

### Prompt Can you look up the measured polymerase ribozyme fitness (log ratio) of C57U C116G G124C G141C U145G for me?
### Response ≤ -4.2

### Prompt Can you look up the measured polymerase ribozyme fitness (log ratio) of A39U A40U A91U C95G for me?
### Response ≤ -4.2

### Prompt Can you look up the measured polymerase ribozyme fitness (log ratio) of G92U A106C for me?
### Response -0.0112

### Prompt Can you look up the measured polymerase ribozyme fitness (log ratio) of C75G C85U A106C A115G G141U for me?
### Response ≤ -4.2

### Prompt Can you look up the measured polymerase ribozyme fitness (log ratio) of U7A A21U G25U U44A A49C C54A C63G C85U G86U C99G for me?
### Response ≤ -4.2

### Prompt Can you look up the measured polymerase ribozyme fitness (log ratio) of A52G C105A C123A G133U U144G for me?
### Response ≤ -4.2
